Test system: 883617-216-R-J1-PDC complex spheroids, growth, % test/control
Assay: Anticancer human tumor 883617-216-R-J1-PDC patient-derived bladder carcinoma cell line growth inhibition [AhR]
Details: second compound 10 µM; first compound 1 µM; active compounds read low
Measured viability, T/C values are reported for all entries that follow.
metric: viability, T/C (%)

compound	u	measured.number
O=C(C=Cc1cccc(S(=O)(=O)Nc2ccccc2)c1)NO + Cc1ccccc1N=Nc1ccc(NC(=O)c2ccnn2C)c(C)c1	%	63.1
O=C(C=Cc1cccc(S(=O)(=O)Nc2ccccc2)c1)NO + Cc1cncc(-c2nc(NCCc3c[nH]c4ccccc34)c3ncn(C(C)C)c3n2)c1	%	42.7
COc1ccc([C@@H](O)c2cc(-c3ncnc4cc(N5CCOCC5)ccc34)c(F)cc2Cl)nn1 + CC(CO)NC(=O)c1cc(-c2ccc(Cl)cc2)nn(-c2cnn(C)c2)c1=O	%	73.4
CC1COCCN1c1cc(C2(S(C)(=N)=O)CC2)nc(-c2ccnc3[nH]ccc23)n1 (stereo unspecified) + Cc1ccccc1N=Nc1ccc(NC(=O)c2ccnn2C)c(C)c1	%	77.3
O=C(c1cc(Cc2n[nH]c(=O)c3ccccc23)ccc1F)N1CCN(C(=O)C2CC2)CC1 + CC(CO)NC(=O)c1cc(-c2ccc(Cl)cc2)nn(-c2cnn(C)c2)c1=O	%	98.9
COc1cccc2c1C(=O)c1c(O)c3c(c(O)c1C2=O)CC(O)(C(=O)CO)CC3OC1CC(N)C(O)C(C)O1 (stereo unspecified) + Cc1cncc(-c2nc(NCCc3c[nH]c4ccccc34)c3ncn(C(C)C)c3n2)c1	%	0.82

----------
System: 883617-216-R-J1-PDC complex spheroids, growth, % test/control
Assay: Anticancer human tumor 883617-216-R-J1-PDC cell line growth inhibition [AhR];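 further: exposure lasted 7 days after dosing on day 3 of spheroid growth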
Conditions: second compound 0.316 µM; first compound 0.0316 µM; active compounds read low
Label Condition met when viability, T/C is strictly below 90%; otherwise label Condition not met.

compound	qualitative.label
CC(C)c1c(-c2ccccc2)nc2c(C#N)c[nH]n2c1=O + Cc1ccccc1N=Nc1ccc(NC(=O)c2ccnn2C)c(C)c1	Condition not met
Cn1ncnc1C1c2n[nH]c(=O)c3cc(F)cc(c23)NC1c1ccc(F)cc1 (stereo not drawn) + CC(CO)NC(=O)c1cc(-c2ccc(Cl)cc2)nn(-c2cnn(C)c2)c1=O	Condition met
COc1cc(Nc2ncc3c(n2)-c2ccc(Cl)cc2C(c2c(F)cccc2OC)=NC3)ccc1C(=O)O + Cc1cncc(-c2nc(NCCc3c[nH]c4ccccc34)c3ncn(C(C)C)c3n2)c1	Condition met
Cn1ncnc1C1c2n[nH]c(=O)c3cc(F)cc(c23)NC1c1ccc(F)cc1 (stereo not drawn) + Cc1ccccc1N=Nc1ccc(NC(=O)c2ccnn2C)c(C)c1	Condition met
COc1cc(C2c3cc4c(cc3C(OC3OC5COC(C)OC5C(O)C3O)C3COC(=O)C23)OCO4)cc(OC)c1O (stereo not drawn) + Cc1cncc(-c2nc(NCCc3c[nH]c4ccccc34)c3ncn(C(C)C)c3n2)c1	Condition met
COc1cccc2c1C(=O)c1c(O)c3c(c(O)c1C2=O)CC(O)(C(=O)CO)CC3OC1CC(N)C(O)C(C)O1 (stereo not drawn) + Cc1cncc(-c2nc(NCCc3c[nH]c4ccccc34)c3ncn(C(C)C)c3n2)c1	Condition met
Nc1ccccc1NC(=O)c1ccc(CNC(=O)OCc2cccnc2)cc1 + Cc1ccccc1N=Nc1ccc(NC(=O)c2ccnn2C)c(C)c1	Condition met
COc1cc(C2c3cc4c(cc3C(OC3OC5COC(C)OC5C(O)C3O)C3COC(=O)C23)OCO4)cc(OC)c1O (stereo not drawn) + CC(CO)NC(=O)c1cc(-c2ccc(Cl)cc2)nn(-c2cnn(C)c2)c1=O	Condition met
Nc1ncn(C2CC(O)C(CO)O2)c(=O)n1 (stereo not drawn) + CC(CO)NC(=O)c1cc(-c2ccc(Cl)cc2)nn(-c2cnn(C)c2)c1=O	Condition not met
